Tested on: A549 (lung)
test summary: Cancer cell proliferation assay (acid phosphatase)
Format: cell-based
applied conditions: Homo sapiens, A549, 72 h, Table 6A; 72 hrs; read-out: A549 IC50
reported property: pIC50
Answers are plain numbers, as −log10 of the molar value.

// solved cases for pIC50 follow
INSERT INTO results (compound, reported_property, reported_measurement) VALUES
  ('Cc1ccccc1C(=O)Nc1nc(NC(=O)c2ccccc2C)n(-c2ccc(F)c(F)c2)n1 [Compound 24]', 'pIC50', 6.55),
  ('C#Cc1ccc(C(=O)Nc2nc(NC(=O)c3cccc(N=[N+]=[N-])c3)n(-c3ccccc3)n2)cc1 [Compound 2]', 'pIC50', 5.66),
  ('Cc1ccccc1C(=O)Nc1nc(NC(=O)c2ccno2)n(-c2ccc(OC(F)(F)F)cc2)n1 [Compound 71]', 'pIC50', 5.62);

Hello, I would appreciate it if you could give pIC50 for each entry below.
1. Cc1ccccc1C(=O)Nc1nc(-c2cccc(F)n2)nn1-c1ccc(C(F)(F)F)cc1 [Compound 131]
2. Cc1ccccc1C(=O)Nc1nc(NC(=O)c2ccccn2)nn1-c1ccccc1 [Compound 16]
3. Cc1ccc(-n2nc(NC(=O)c3ccccc3C)nc2NC(=O)c2ccccc2C)cc1 [Compound 31]
4. Cc1ccccc1C(=O)Nc1nc(NC(=O)c2ccno2)n(-c2cccc(F)c2)n1 [Compound 73]
5. Cc1ccccc1C(=O)Nc1nc(NC(=O)c2ccno2)n(-c2ccc(C(F)(F)F)cc2)n1 [Compound 75]
6. Cc1cccc(-c2nc(NC(=O)c3ccccc3C)n(-c3ccc(C(F)(F)F)cc3)n2)n1 [Compound 133]

Reply |
5.64
5.59
5.60
5.60
5.60
5.60

The measurements presented in this section are drawn from patent US10889553B2.
